Sourced from ChEMBL document CHEMBL1155883

# Tested on: Human immunodeficiency virus type 1 reverse transcriptase (Human immunodeficiency virus 1), Q72547 [Y181I]
Please respond with Condition met when measured ID50 is strictly beneath 1000 nM, and with Condition not met in all other cases.

INSERT INTO measurements (chemicalsmiles, classname) VALUES
  ('COc1ccc(C(=O)CSc2nc(Cc3c(F)cccc3Cl)cc(=O)[nH]2)cc1', 'Condition not met');

In the record for `O=C(CSc1nc(Cc2c(Cl)cccc2Cl)cc(=O)[nH]1)c1ccccc1` , is ID50 less than 1000 nM?
Condition met

In the record for `Cc1c(Cc2c(F)cccc2Cl)nc(SCC(=O)c2ccc(F)cc2)[nH]c1=O` , is ID50 less than 1000 nM?
Condition met

In the record for `O=C(CSc1nc(Cc2c(F)cccc2Cl)cc(=O)[nH]1)c1ccc(F)cc1` , is ID50 less than 1000 nM?
Condition not met

In the record for `CCc1c(Cc2c(Cl)cccc2Cl)nc(SCC(=O)c2ccc(F)cc2)[nH]c1=O` , is ID50 less than 1000 nM?
Condition met

In the record for `CC(C)c1c(Cc2c(F)cccc2F)nc(SCC(=O)c2ccccc2)[nH]c1=O` , is ID50 less than 1000 nM?
Condition not met

In the record for `COc1ccc(C(=O)CSc2nc(Cc3c(F)cccc3F)c(C)c(=O)[nH]2)cc1` , is ID50 less than 1000 nM?
Condition not met

In the record for `Cc1c(Cc2c(F)cccc2F)nc(SCC(=O)c2ccccc2)[nH]c1=O` , is ID50 less than 1000 nM?
Condition not met

In the record for `O=C(CSc1nc(Cc2c(Cl)cccc2Cl)cc(=O)[nH]1)c1ccc(F)cc1` , is ID50 less than 1000 nM?
Condition not met

---

# measurementNotes: Cytotoxicity against human MT4 cells by MTT assay
# Assay type: cell-based
# CC50 values compiled below

INSERT INTO results (chemicalsmiles, quantityname, endpointresult) VALUES
  ('CC(C)c1c(Cc2c(F)cccc2F)nc(SCC(=O)c2ccc(F)cc2)[nH]c1=O', 'CC50', '> 58 µM'),
  ('O=C(CSc1nc(Cc2c(F)cccc2F)cc(=O)[nH]1)c1ccc(Cl)cc1', 'CC50', '> 61 µM'),
  ('O=c1cc(Cc2c(F)cccc2F)nc(SCc2ccccc2)[nH]1', 'CC50', '> 73 µM'),
  ('Cc1c(Cc2c(F)cccc2F)nc(SC(C)C)[nH]c1=O', 'CC50', '> 77 µM'),
  ('O=C(CSc1nc(Cc2c(Cl)cccc2Cl)cc(=O)[nH]1)c1ccccc1', 'CC50', '> 12 µM');

Read the next record carefully.
Reported CC50 ( `O=c1cc(Cc2c(F)cccc2F)nc(SCc2c(F)cccc2F)[nH]1` ) = > 66 µM

---

# Test system: Human immunodeficiency virus 1
# measurementNotes: Resistance index, ratio of ID50 for reverse transcriptase L100I mutant to IC50 for wild-type HIV1 reverse transcriptase
Please respond with class 1 when measured Ratio is strictly beneath 100, and with class 0 in all other cases.

In the record for `O=C(CSc1nc(Cc2c(Cl)cccc2Cl)cc(=O)[nH]1)c1ccccc1` , is Ratio less than 100?
class 0

In the record for `Cc1c(Cc2c(F)cccc2Cl)nc(SCC(=O)c2ccc(F)cc2)[nH]c1=O` , is Ratio less than 100?
class 1

In the record for `CCc1c(Cc2c(Cl)cccc2Cl)nc(SCC(=O)c2ccc(F)cc2)[nH]c1=O` , is Ratio less than 100?
class 1

In the record for `Cc1c(Cc2c(Cl)cccc2Cl)nc(SCC(=O)c2ccc(F)cc2)[nH]c1=O` , is Ratio less than 100?
class 1

In the record for `Cc1c(Cc2c(F)cccc2F)nc(SCC(=O)c2ccccc2)[nH]c1=O` , is Ratio less than 100?
class 1

In the record for `CCc1c(Cc2c(F)cccc2F)nc(SCC(=O)c2ccccc2)[nH]c1=O` , is Ratio less than 100?
class 0

In the record for `CCc1c(Cc2c(F)cccc2F)nc(SCC(=O)c2ccc(F)cc2)[nH]c1=O` , is Ratio less than 100?
class 0

In the record for `COc1ccc(C(=O)CSc2nc(Cc3c(F)cccc3Cl)cc(=O)[nH]2)cc1` , is Ratio less than 100?
class 1

In the record for `O=C(CSc1nc(Cc2c(Cl)cccc2Cl)cc(=O)[nH]1)c1ccc(F)cc1` , is Ratio less than 100?
class 0

In the record for `O=C(CSc1nc(Cc2c(F)cccc2Cl)cc(=O)[nH]1)c1ccccc1` , is Ratio less than 100?
class 0

In the record for `CCc1c(Cc2c(F)cccc2Cl)nc(SCC(=O)c2ccccc2)[nH]c1=O` , is Ratio less than 100?
class 0
